System: NCI-H322M lung
assay-info: NCI-60 one-dose screen, 48 h
condition: 10 µM unless noted
The panel holds about 83,000 compounds, 20% with a hit somewhere; the sample as a whole holds those more often. The source made the active and inactive calls. How the source made its calls: active means growth percent below 10; inactive means the rest.
Labels: T = active, F = inactive

{"compound": "O=S(=O)(Nc1ccccc1)c1ccc(C2CC3(Cl)C(Cl)=C(Cl)C2(Cl)C3(Cl)Cl)cc1 (stereo unspecified)", "assigned-category": "F"}
{"compound": "CC(=O)Cc1nsc(NC(=O)c2cc(-c3cc(Cl)cc(Cl)c3)oc2C)n1", "assigned-category": "F"}
{"compound": "COc1ccc(/C=N/NC(=O)CCN2c3ccccc3Sc3ccccc32)cc1", "assigned-category": "F"}
{"compound": "COC(=O)c1c2c(c(C)[n+]([O-])c1C)C(=O)C=C(NCc1ccc(OC)cc1)C2=O", "assigned-category": "T"}
{"compound": "O=c1oc2ccccc2cc1C1=NN=C(SCc2ccccc2)SC1", "assigned-category": "F"}
{"compound": "Cn1cc(-c2csc(-c3ccc(Cl)cc3)n2)c2cccnc21", "assigned-category": "T"}
{"compound": "O=[N+]([O-])C1C(c2ccccc2)C12c1ccccc1-c1ccccc12 (stereo unspecified)", "assigned-category": "F"}
{"compound": "COc1cccc(/C=C/C(=O)c2cc3c(N)c(C(=O)Nc4ccccc4)sc3nc2C)c1", "assigned-category": "F"}
{"compound": "Cc1cccc2c1NC(=O)C2(c1ccc(O)cc1)c1ccc(O)cc1", "assigned-category": "F"}
{"compound": "COc1ccc(C(=O)Nc2cccc(C3CC(=O)c4c(cc(OC)c(OC)c4OC)O3)c2)cc1 (stereo unspecified)", "assigned-category": "F"}
{"compound": "CCCCCCCCCCCCCCCCCCOc1ccccc1CC(=O)NCC[N+]1(C)CCCC1", "assigned-category": "F"}

---

Tested on: HOP-92 NSCLC
assay-info: NCI-60 one-dose screen, 48 h (100 = growth as untreated, 0 = no growth, -100 = all killed)
condition: 10 µM unless noted
About 83,000 compounds went through this panel and 20% of them were active in at least one assay; those are over-represented in the sample as a whole.
Tag: yes (1) if measured growth is not below 90%, no (0) if it is.

{"compound": "COc1cc(CNC(=O)CCCC/C=C/C(C)C)ccc1OCc1nnc(Nc2ccc([N+](=O)[O-])cc2)o1", "assigned-category": "no (0)"}
{"compound": "O=C(CN1C(=O)CCC1=O)Nc1ncc(Cc2ccc(F)cc2)s1", "assigned-category": "yes (1)"}
{"compound": "C=CCn1cc(-c2nc3ccccc3s2)c2cc(-c3ccc4c5c(cccc35)C(=O)N(N)C4=O)ccc21", "assigned-category": "yes (1)"}
{"compound": "CCOC(=O)CSc1ncnc2c1c(-c1ccccc1)c(-c1ccccc1)n2-c1ccc(C)cc1", "assigned-category": "no (0)"}
{"compound": "O=S(=O)(Nc1cc(Br)c(O)c2ccccc12)c1ccc(F)cc1", "assigned-category": "no (0)"}
{"compound": "Cc1nc2ncnc(Cl)c2[nH]1", "assigned-category": "no (0)"}
{"compound": "Nc1ncnc2c1N=C(c1ccc3c(c1)OCO3)CC(c1cccc(Nc3ccnc4cc(Cl)ccc34)c1)N2 (stereo not given)", "assigned-category": "no (0)"}
{"compound": "CC1=C(CCC(C)N(C)Cc2ccc(OCCCN3CCCC3)cc2)C(C)(C)CCC1 (stereo not given)", "assigned-category": "no (0)"}
{"compound": "N#CC1C=CN(CC(N)=O)c2ccc3cccnc3c21 (stereo not given)", "assigned-category": "yes (1)"}
{"compound": "O=S(=O)(NCCCNc1nccc(-c2c(-c3ccc(F)c(O)c3)nc3occn23)n1)c1ccccc1", "assigned-category": "no (0)"}
{"compound": "COc1ccc(CC(C#N)c2cc3ccccc3[nH]2)cc1 (stereo not given)", "assigned-category": "no (0)"}
{"compound": "Cn1c(O)c(C=NCCN=Cc2c(O)n(C)c(=O)n(C)c2=O)c(=O)n(C)c1=O", "assigned-category": "no (0)"}
{"compound": "CNC(=O)c1cc(Oc2ccc3nc(NC(C)=O)sc3c2)ccn1", "assigned-category": "yes (1)"}
